# tested.system: Aurora-A (Mus musculus)
# Construct: made in house; host or cells: sf9 insect cells
# Sequence (P97477 whole entry): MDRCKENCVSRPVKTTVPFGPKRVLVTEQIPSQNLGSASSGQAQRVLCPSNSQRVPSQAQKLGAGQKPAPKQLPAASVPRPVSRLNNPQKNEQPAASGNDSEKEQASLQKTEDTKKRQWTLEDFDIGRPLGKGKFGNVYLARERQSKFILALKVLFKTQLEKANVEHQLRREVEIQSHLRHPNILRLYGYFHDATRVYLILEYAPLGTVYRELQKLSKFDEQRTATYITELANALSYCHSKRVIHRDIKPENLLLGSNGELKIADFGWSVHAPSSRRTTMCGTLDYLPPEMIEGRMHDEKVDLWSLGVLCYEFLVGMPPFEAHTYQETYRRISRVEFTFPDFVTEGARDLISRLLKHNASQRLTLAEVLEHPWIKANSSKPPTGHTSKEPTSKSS
# assay.protocol: Aurora-A Screening Assay
# Type: biochemical, murine
# study.conditions: 33P-γ-ATP incorporation, 10 μM ATP
readout.type: IC50 (µM)
Please reply with the bare figure in µM and do not write the unit itself.

CCN(CC)CCc1ccc(Nc2nccc(-c3c[nH]c4ncccc34)n2)cc1; 0.244
CNCCc1ccc(Nc2nccc(-c3c[nH]c4ncccc34)n2)c(Cl)c1; 0.408
Cc1cc(CCN2CCCCC2)ccc1Nc1nccc(-c2c[nH]c3ncccc23)n1; 0.902

Value lookup for IC50; key = `CN(C)CCc1ccc(Nc2nccc(-c3c[nH]c4ncccc34)n2)c(Cl)c1` 0.908

Value lookup for IC50; key = `Cc1cc(O)ccc1Nc1nccc(-c2c[nH]c3ncccc23)n1` 0.119

Value lookup for IC50; key = `OCC[C@H]1CC[C@H](Nc2nccc(-c3c[nH]c4ncccc34)n2)CC1` 0.374

Value lookup for IC50; key = `OCCc1ccc(Nc2nccc(-c3c[nH]c4ncccc34)n2)cc1` 0.159

Value lookup for IC50; key = c1cnc2[nH]cc(-c3ccnc(N[C@@H]4CC5CCC4C5)n3)c2c1 (stereo partly shown) 0.566

Value lookup for IC50; key = `CNCCc1ccc(Nc2nccc(-c3c[nH]c4ncccc34)n2)c(C)c1` 0.317

Value lookup for IC50; key = `Brc1ccccc1Nc1nccc(-c2c[nH]c3ncccc23)n1` 0.175

Value lookup for IC50; key = `CCOc1ccc(Nc2nccc(-c3c[nH]c4ncccc34)n2)cc1` 0.084

Value lookup for IC50; key = `Cc1cc(CCN(C)C)ccc1Nc1nccc(-c2c[nH]c3ncccc23)n1` 0.466

---

# tested.system: CDK1:Cyclin-B (Homo sapiens, UniProt P06493)
# Construct: purchased New England Biolabs, Beverly, Mass; 6020; host or cells: insect cells
# Sequence (P06493 whole entry): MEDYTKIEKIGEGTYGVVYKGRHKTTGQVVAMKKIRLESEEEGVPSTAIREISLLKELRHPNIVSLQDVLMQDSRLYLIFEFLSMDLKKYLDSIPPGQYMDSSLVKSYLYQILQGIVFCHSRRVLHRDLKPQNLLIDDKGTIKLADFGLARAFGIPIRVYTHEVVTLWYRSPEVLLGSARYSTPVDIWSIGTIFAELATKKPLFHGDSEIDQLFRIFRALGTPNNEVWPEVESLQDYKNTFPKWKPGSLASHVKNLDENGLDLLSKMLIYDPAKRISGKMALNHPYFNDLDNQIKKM
# Sequence (P14635 whole entry partner): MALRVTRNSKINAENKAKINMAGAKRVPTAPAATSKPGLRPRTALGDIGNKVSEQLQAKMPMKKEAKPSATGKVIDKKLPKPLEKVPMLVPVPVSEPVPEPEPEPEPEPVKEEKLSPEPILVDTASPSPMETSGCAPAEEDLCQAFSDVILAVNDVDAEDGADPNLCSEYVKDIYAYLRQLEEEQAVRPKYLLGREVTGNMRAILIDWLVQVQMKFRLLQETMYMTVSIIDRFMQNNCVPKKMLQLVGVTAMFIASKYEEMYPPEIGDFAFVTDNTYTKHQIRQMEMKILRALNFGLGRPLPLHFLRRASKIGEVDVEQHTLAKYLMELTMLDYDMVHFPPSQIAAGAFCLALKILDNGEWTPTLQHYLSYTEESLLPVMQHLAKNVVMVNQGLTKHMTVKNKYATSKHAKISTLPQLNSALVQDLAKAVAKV
# assay.protocol: CDK1 Screening Assay
# Assay type: biochemical
# study.conditions: 33P-γ-ATP incorporation, 10 μM ATP
Reported IC50 values follow for various compounds
Please reply with the bare figure in µM and do not write the unit itself.

Please review the following examples before continuing.
Oc1ccccc1Nc1nccc(-c2c[nH]c3ncccc23)n1 [Cpd 30]; 0.139
c1cnc2[nH]cc(-c3ccnc(N[C@@H]4CC5CCC4C5)n3)c2c1 (stereo partly shown) [Cpd 58]; 0.109
Cc1cc(CCN2CCCCC2)ccc1Nc1nccc(-c2c[nH]c3ncccc23)n1 [Cpd 50]; 0.0011
Cc1ccc(Nc2nccc(-c3c[nH]c4ncccc34)n2)cc1 [Cpd 10]; 0.04
COc1cc(Nc2nccc(-c3c[nH]c4ncccc34)n2)cc(OC)c1OC [Cpd 2]; 0.169
OCCOc1ccc(Nc2nccc(-c3c[nH]c4ncccc34)n2)cc1 [Cpd 4]; 0.021
CN(C)CCn1cc(-c2ccnc(NC3CCCCC3)n2)c2cccnc21 [Cpd 69]; 10.4
COc1cccc(Nc2nccc(-c3c[nH]c4ncccc34)n2)c1 [Cpd 6]; 0.119

Value lookup for IC50; key = CCN(CC)CCc1ccc(Nc2nccc(-c3c[nH]c4ncccc34)n2)c(C)c1 [Cpd 47] 0.0014

Value lookup for IC50; key = NC1CCC(Nc2nccc(-c3c[nH]c4ncccc34)n2)CC1 (mixture of isomers) [Cpd 43] 0.0066

---

# tested.system: RET (Homo sapiens, UniProt P07949)
# Construct: the RET cytoplasmic domain consisting of the last 492 amino acids of the intracellular domain of the RET tyrosine kinase; histidine tag (N); made in house; host or cells: Hi5 insect cells
# Sequence (P07949 658-1114 limits assumed): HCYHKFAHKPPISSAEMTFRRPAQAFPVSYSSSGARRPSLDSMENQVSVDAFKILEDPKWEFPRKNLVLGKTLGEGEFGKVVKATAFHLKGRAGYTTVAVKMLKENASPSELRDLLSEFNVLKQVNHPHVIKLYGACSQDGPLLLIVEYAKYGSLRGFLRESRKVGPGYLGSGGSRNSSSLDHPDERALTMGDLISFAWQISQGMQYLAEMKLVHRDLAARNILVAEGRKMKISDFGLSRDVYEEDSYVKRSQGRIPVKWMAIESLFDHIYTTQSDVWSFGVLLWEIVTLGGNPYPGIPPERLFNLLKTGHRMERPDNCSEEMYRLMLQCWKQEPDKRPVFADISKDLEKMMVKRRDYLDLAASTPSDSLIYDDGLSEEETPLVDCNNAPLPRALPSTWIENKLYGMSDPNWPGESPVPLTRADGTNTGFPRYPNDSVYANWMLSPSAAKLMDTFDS
# assay.protocol: RET Kinase Screening Assay
# Format: biochemical
# study.conditions: 33P-γ-ATP incorporation, 10 μM ATP
Reported IC50 values follow for various compounds

Clc1ccccc1Nc1nccc(-c2c[nH]c3ncccc23)n1 [Cpd 12]; > 10 µM

Value lookup for IC50; key = COc1ccccc1Nc1nccc(-c2c[nH]c3ncccc23)n1 [Cpd 7] > 10 µM

Value lookup for IC50; key = Cc1ccc(Nc2nccc(-c3c[nH]c4ncccc34)n2)cc1 [Cpd 10] ~10 µM
